# measurement target: Cytochrome P450 2C19 (Homo sapiens)
# experiment notes: Cytochrome P450 Family 2 Subfamily C Member 19 (CYP2C19) small molecule antagonists: luciferase reporter qHTS assay (AID 1671197); further: nearly all actives have a fitted effect of over 65% in size
# cond: P450-Glo CYP2C19 enzyme, luciferin luminescence, 1 h; series mostly up to 52.9 µM
# Source text: National Center for Advancing Translational Sciences [NCATS] U.S. Environmental Protection Agency [EPA] National Institutes of Environmental Health Sciences [NIEHS] National Toxicology Program [NTP] U.S. Food and Drug Administration [FDA] Cytochrome P450 (CYP) enzymes are membrane-bound hemeproteins that play a key role in metabolism of drugs and xenobiotics. […] The luciferin products formed are detected with a luciferin detection reagent, and the amount of light produced is proportional to CYP activity. […]
Records with an inconclusive call do not appear. Calls of active or inactive are those of the source. The call rests on the fitted dose curve; in most records, active means well fitted inhibition curve with a large enough effect in the repeat runs; inconclusive means weak or mixed curves; inactive means no such curve, though single readings can be large or run the other way.
// classify into active, inactive

compound | assigned label
C[C@@H](O[C@H]1OCCN(Cc2n[nH]c(=O)[nH]2)[C@H]1c1ccc(F)cc1)c1cc(C(F)(F)F)cc(C(F)(F)F)c1 | active
Nc1nc2ccc([N+](=O)[O-])cc2s1 | active
CN1C(C(=O)Nc2ccccn2)=C(O)c2sccc2S1(=O)=O | inactive
CC(=O)N/N=C/c1ccc([N+](=O)[O-])o1 | inactive

What is the recorded call for this compound in the test? CC(C)C[C@H](NC(=O)[C@H](CCc1ccccc1)NC(=O)CN1CCOCC1)C(=O)N[C@@H](Cc1ccccc1)C(=O)N[C@@H](CC(C)C)C(=O)[C@@]1(C)CO1
inactive

Follow-up entry: Brc1cc(Br)c(Oc2cc(Br)c(Br)cc2Br)cc1Br
active

Follow-up entry: Cc1c(C)c2c(c(C)c1OC(=O)CCC(=O)OCCO)CC[C@@](C)(CCC[C@H](C)CCC[C@H](C)CCCC(C)C)O2
inactive
